- TARGET: DPP-VII (Homo sapiens, UniProt Q9UHL4)
- Construct: The full length cDNAs for human DPP-VII, DPP-VIII, DPP-IX, and FAP were obtained from Open Biosystems; FLAG (N); made in house
- ASSAY_NAME: DPP-VII IC50 assay (Lys-Pro AMC), selectivity versus DPP-IV
- Type: biochemical
- CONDITION_DETAILS: IC50 of DPP-VII divided by IC50 for DPP-IV
- Experimental: The term “selectivity ratio” refers to the IC50 value generated in a biochemical assay measuring inhibition of DPP-IV compared to the IC50 value generated in a biochemical assay measuring inhibition of another DPP family member (e.g. DPP-VII, DPP-VIII, DPP-IX or FAP) whereby the ratio is obtained by dividing the IC50 value of DPP-VII, DPP-VIII, DPP-IX or FAP by the IC50 value for DPP-IV. Materials. […] Fluorescence in each well was measured at settings of 380/460 nm.
READOUT_KIND: Selectivity Ratios DPP-VII

> print(dat)
                            compound.smiles                readout.kind       result
1  N[C@@H]1CCN(S(=O)(=O)c2ccc(-c3ccccc3)cc2)C[C@H]1C(=O)N1CCC[C@H]1B(O)O  Selectivity Ratios DPP-VII  E (E > 100)
2  CS(=O)(=O)c1ccc(S(=O)(=O)N2CC[C@@H](N)[C@H](C(=O)N3CCC[C@H]3B(O)O)C2)cc1  Selectivity Ratios DPP-VII  E (E > 100)
3  CS(=O)(=O)N1CC[C@@H](N)[C@H](C(=O)N2CCC[C@H]2B(O)O)C1  Selectivity Ratios DPP-VII  E (E > 100)
4  N[C@@H]1CCN(S(=O)(=O)c2ccccc2)C[C@H]1C(=O)N1CCC[C@H]1B(O)O  Selectivity Ratios DPP-VII  E (E > 100)
5  N[C@@H]1CCN(S(=O)(=O)c2cccc(F)c2)C[C@H]1C(=O)N1CCC[C@H]1B(O)O  Selectivity Ratios DPP-VII  E (E > 100)

Name the recorded Selectivity Ratios DPP-VII for N[C@@H]1CN(S(=O)(=O)c2cccc3ccccc23)CC[C@H]1C(=O)N1CCC[C@H]1B(O)O . C (10 < C ≦ 50)

Consider next the molecule N[C@@H]1CCN(S(=O)(=O)c2cccc(-c3ccccc3)c2)C[C@H]1C(=O)N1CCC[C@H]1B(O)O in the same way. C (10 < C ≦ 50)
